measurement description: NCI Yeast Anticancer Drug Screen. Data for the rad50 strain (AID 155);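 further: 0% = growth of vehicle-only cultures of the same strain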
assay setup: S. cerevisiae rad50 strain growth inhibition; at 50.0 µM; hits give high values
About 79,000 compounds went through this panel and 15% of them were active in at least one assay; those are over-represented in the sample as a whole.
observed property: growth inhibition (%)

1. CCN1C(NN)=NS(=O)(=O)c2ccccc21 :: -31.1
2. CCOC(=O)NN1C(=O)C(=P(c2ccccc2)(c2ccccc2)c2ccccc2)C(C(=O)OC)=C1C :: -4.05
3. Cc1cc(Br)c(I)c([N+](=O)[O-])c1 :: 34.5
4. Nc1nc(Cc2ccccc2)c(-c2ccccc2)c(-c2nc(N)nc(Cc3ccccc3)c2-c2ccccc2)n1 :: -9.6
5. ClC1=C(Cl)C2(Cl)C=CC1(Cl)C2 :: 4.05
6. CN(C=O)c1ccc([N+](=O)[O-])cc1 :: 7.1
7. CSCCC(NC(C)=O)C(=O)O (centres undefined) :: 6.1
8. O[C@H]1[C@H]2[C@H](O)C[C@H](CCOCc3ccccc3)CN2C[C@H]1O :: -8.15
9. Cc1oc2ccccc2c(=O)c1Cn1cnc2ccc([N+](=O)[O-])cc21 :: -0.45
10. O=C(NC1CCCCC1)NC12CC3CC(CC(F)(C3)C1)C2 :: -9.9
11. CCCN(CCC)C(=O)c1c(Cl)c2cccnc2n2c(C)cnc12 :: 5.35
12. CC1(O)C=CC2CCC1C2O (centres undefined) :: 11.9
13. CCC(C#N)NC1CCN(Cc2ccccc2)CC1 (centres undefined) :: 1.3
14. CCOC(=O)c1cc(/C=C/C(C)=C/C(=O)OC)oc1C :: 6.85
15. O=C(Nc1ccc(Cl)cc1C(=O)O)c1ccc([N+](=O)[O-])cc1 :: 23.1
16. CCN(CC)CC(C)C(O)(Cc1ccccc1)c1ccc(Cl)cc1 (centres undefined) :: 21.4
17. CCN(CC)C1Oc2cc3c(cc2C(c2cccc(OC)c2O)C1C)OCO3 (centres undefined) :: 21.1
18. CC(C)OCCCN(Cn1c(=S)sc2ccccc21)Cn1c(=S)sc2ccccc21 :: 66.8
19. Brc1ccc(/C(=N/Nc2ccccc2)Oc2ccccc2)cc1 :: 17.6
20. O=C1N=C(C=c2ccc(=Cc3[nH]c(=O)[nH]c3O)cc2)C(=O)N1 :: -5.95
21. CN1CC2(CO)C(c3ccccn3)N(C)C(c3ccccn3)C(CO)(C1)C2O (centres undefined) :: 2.5
22. Cc1ccc(=O)n(Cc2ccccc2)n1 :: -8.25
23. Cc1ccc(Oc2cc(C)ccc2P(=O)(O)O)cc1 :: 6.5
24. O=C(O)CC(=O)c1ccccc1 :: -27.8
